SUBJECT_OF_TEST: HLA-B*57:01
EXPERIMENT_SUMMARY: IEDB peptide-MHC binding, purified MHC/competitive/fluorescence; filed as Kd, often an IC50 or EC50 that approximates it; bounds were set here for any values at or beyond the usual limits of such assays
CONDITION_INFO: source organism: Influenza A virus (A/Yokohama/22/2002(H1N2))
PARAMETER_MEASURED: Kd

## Task Fill: Kd (HLA-B*57:01) for this sequence `WTGMVDGWY`
## Result ≥ 20 µM

====

SUBJECT_OF_TEST: HLA-B*39:01
EXPERIMENT_SUMMARY: IEDB peptide-MHC binding, purified MHC/direct/fluorescence; filed as Kd, often an IC50 or EC50 that approximates it; bounds were set here for any values at or beyond the usual limits of such assays
CONDITION_INFO: source organism: Escherichia coli O157:H7 str. EC869
PARAMETER_MEASURED: Kd

## Task Item `YGSWFGLIY` : provide Kd
## Result ≥ 20 µM

====

SUBJECT_OF_TEST: HLA-B*46:01
EXPERIMENT_SUMMARY: IEDB peptide-MHC binding, purified MHC/competitive/fluorescence; filed as Kd, often an IC50 or EC50 that approximates it; bounds were set here for any values at or beyond the usual limits of such assays
CONDITION_INFO: source organism: Zaire ebolavirus
pKd: −log10 of the molar value.
PARAMETER_MEASURED: pKd

## Task Item `KLWTSISCA` : provide pKd
## Result ≤ 4.70

====

Field: pIC50. Provide a value for each of the sequences that follow.
SUBJECT_OF_TEST: HLA-B*07:02
EXPERIMENT_SUMMARY: IEDB peptide-MHC binding, purified MHC/competitive/fluorescence; bounds were set here for any values at or beyond the usual limits of such assays
CONDITION_INFO: source organism: Zaire ebolavirus
pIC50: −log10 of the molar value.

## Task Item `EPVVFSTSD` : provide pIC50
## Result ≤ 3.84

Further cases:
## Task Item `PSGSTSPRM` : provide pIC50
## Result ≤ 3.69

====

SUBJECT_OF_TEST: HLA-B*58:01
EXPERIMENT_SUMMARY: IEDB peptide-MHC binding, purified MHC/direct/fluorescence; filed as Kd, often an IC50 or EC50 that approximates it; bounds were set here for any values at or beyond the usual limits of such assays
CONDITION_INFO: source organism: Yersinia enterocolitica
PARAMETER_MEASURED: Kd

## Task Item `GYGRVNAGK` : provide Kd
## Result ≥ 20 µM

====

SUBJECT_OF_TEST: HLA-B*08:01
EXPERIMENT_SUMMARY: IEDB peptide-MHC binding, purified MHC/direct/fluorescence; filed as Kd, often an IC50 or EC50 that approximates it; bounds were set here for any values at or beyond the usual limits of such assays
CONDITION_INFO: source organism: Pseudomonas aeruginosa
pKd: −log10 of the molar value.
PARAMETER_MEASURED: pKd

## Task Item `DLPPAIAAE` : provide pKd
## Result ≤ 4.70

====

SUBJECT_OF_TEST: HLA-A*02:12
EXPERIMENT_SUMMARY: IEDB peptide-MHC binding, purified MHC/competitive/fluorescence; filed as Kd, often an IC50 or EC50 that approximates it; bounds were set here for any values at or beyond the usual limits of such assays
CONDITION_INFO: source organism: Campylobacter jejuni subsp. jejuni NCTC 11168 = ATCC 700819
PARAMETER_MEASURED: Kd

## Task Item `LELAEITAE` : provide Kd
## Result ≥ 20 µM

====

SUBJECT_OF_TEST: HLA-B*54:01
EXPERIMENT_SUMMARY: IEDB peptide-MHC binding, purified MHC/competitive/radioactivity; filed as Kd, often an IC50 or EC50 that approximates it; bounds were set here for any values at or beyond the usual limits of such assays
CONDITION_INFO: source organism: Vaccinia virus WR
Field: Kd. Provide a value for each of the sequences that follow.
Give bare numbers, in µM.

## Task Fill: Kd (HLA-B*54:01) for this sequence `LPPFTQHLL`
## Result 3.03

## Task Fill: Kd (HLA-B*54:01) for this sequence `TPLHKYCVNL`
## Result 4.86

## Task Fill: Kd (HLA-B*54:01) for this sequence `EPSGNNYHIL`
## Result 15.5

## Task Fill: Kd (HLA-B*54:01) for this sequence `SPLPSLEYGA`
## Result 0.000204

## Task Fill: Kd (HLA-B*54:01) for this sequence `DPDHYKDYA`
## Result 7.01

Give Kd for all sequences that follow.
1. IPYSRVNHA
2. LPMIIGEPII

## Result
0.000133
0.0311

Give Kd for all sequences that follow.
1. PPLISILMIF
2. EVVMAYVGIK

## Result
1. 3.12
2. 7.93

====

SUBJECT_OF_TEST: HLA-B*07:02
EXPERIMENT_SUMMARY: IEDB peptide-MHC binding, purified MHC/direct/fluorescence; filed as Kd, often an IC50 or EC50 that approximates it; bounds were set here for any values at or beyond the usual limits of such assays
CONDITION_INFO: source organism: Mycobacterium tuberculosis
PARAMETER_MEASURED: Kd

## Task Item `QVFKGVVIR` : provide Kd
## Result ≥ 20 µM

====

SUBJECT_OF_TEST: HLA-A*11:01
EXPERIMENT_SUMMARY: IEDB peptide-MHC binding, purified MHC/direct/fluorescence; filed as Kd, often an IC50 or EC50 that approximates it; bounds were set here for any values at or beyond the usual limits of such assays
CONDITION_INFO: source organism: Influenza A virus (A/whooper swan/Mongolia/6/05(H5N1))
PARAMETER_MEASURED: Kd

## Task Item `SSDDFALIV` : provide Kd
## Result ≥ 20 µM

====

Field: Kd. Provide a value for each of the sequences that follow.
SUBJECT_OF_TEST: HLA-B*15:17
EXPERIMENT_SUMMARY: IEDB peptide-MHC binding, purified MHC/competitive/fluorescence; filed as Kd, often an IC50 or EC50 that approximates it; bounds were set here for any values at or beyond the usual limits of such assays
CONDITION_INFO: source organism: Zaire ebolavirus

## Task Item `KLWTSISCA` : provide Kd
## Result ≥ 20 µM

Next:
## Task Item `SKLRALLTL` : provide Kd
## Result ≥ 20 µM

====

SUBJECT_OF_TEST: HLA-A*02:06
EXPERIMENT_SUMMARY: IEDB peptide-MHC binding, purified MHC/competitive/radioactivity; filed as Kd, often an IC50 or EC50 that approximates it; bounds were set here for any values at or beyond the usual limits of such assays
CONDITION_INFO: source organism: Mammarenavirus juninense
PARAMETER_MEASURED: Kd

## Task Item `YNFSLSAAV` : provide Kd
## Result ≥ 77 µM

====

SUBJECT_OF_TEST: HLA-A*11:01
EXPERIMENT_SUMMARY: IEDB peptide-MHC binding, purified MHC/direct/fluorescence; filed as Kd, often an IC50 or EC50 that approximates it; bounds were set here for any values at or beyond the usual limits of such assays
CONDITION_INFO: source organism: Vibrio vulnificus YJ016
PARAMETER_MEASURED: Kd

## Task Item `KRFYQTVGF` : provide Kd
## Result ≥ 20 µM

====

Field: pKd. Provide a value for each of the sequences that follow.
SUBJECT_OF_TEST: HLA-B*08:01
EXPERIMENT_SUMMARY: IEDB peptide-MHC binding, purified MHC/competitive/radioactivity; filed as Kd, often an IC50 or EC50 that approximates it; bounds were set here for any values at or beyond the usual limits of such assays
CONDITION_INFO: source organism: Dengue virus 3 Martinique/1243/1999
One number for each entry, as −log10 of the molar value.

## Task Item `ERLQRKHGGM` : provide pKd
## Result 7.04

Next:
## Task Item `SLLFKTASG` : provide pKd
## Result 6.27

====

SUBJECT_OF_TEST: HLA-A*68:01
EXPERIMENT_SUMMARY: IEDB peptide-MHC binding, purified MHC/competitive/radioactivity; filed as Kd, often an IC50 or EC50 that approximates it; bounds were set here for any values at or beyond the usual limits of such assays
CONDITION_INFO: source organism: Vaccinia virus WR
PARAMETER_MEASURED: Kd (µM)
Answers are plain numbers, in µM.

Completed entries (count: 6):
## Task Item `EVVMAYVGIK` : provide Kd
## Result 0.00668

## Task Item `NFFVFIHMVR` : provide Kd
## Result 0.000996

## Task Item `SSAVVDNKLK` : provide Kd
## Result 0.00119

## Task Item `FIMLEGETK` : provide Kd
## Result 0.0281

## Task Item `TSEKYSKGYK` : provide Kd
## Result 0.924

## Task Item `MIKNLTQLFK` : provide Kd
## Result 0.00162

Next:
## Task Item `KVVKKLSVIR` : provide Kd
## Result 0.482
